biological target: Voltage-gated potassium channel subunit beta-2 (Rattus norvegicus) (UniProt P62483); experiment: enhancers of rat Kvbeta2 NADPH turnover – biochemical, NADPH fluorescence, primary screen (AID 623); conditions: Recombinant KvBeta, NADPH fluorescence decrease slope, 10 min; at 10 µM; active compounds read low;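 note: fluorescence intensity change per second fitted from 20 to 320 s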
Sequence (P62483 whole entry, looked up): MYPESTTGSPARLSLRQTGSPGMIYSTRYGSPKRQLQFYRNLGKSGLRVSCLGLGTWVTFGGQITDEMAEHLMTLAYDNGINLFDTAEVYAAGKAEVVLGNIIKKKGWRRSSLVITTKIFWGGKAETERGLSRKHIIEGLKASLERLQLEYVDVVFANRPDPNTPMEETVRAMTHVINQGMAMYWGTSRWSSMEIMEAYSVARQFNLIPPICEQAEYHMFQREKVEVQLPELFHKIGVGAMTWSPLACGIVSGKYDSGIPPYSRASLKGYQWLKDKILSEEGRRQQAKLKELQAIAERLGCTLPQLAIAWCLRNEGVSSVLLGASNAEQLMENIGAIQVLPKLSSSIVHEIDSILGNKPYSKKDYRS
Measured metric: NADPH fluorescence slope
Lab note: jot the number down without any unit.

Reference set, count: 10
O=C(NCC1COc2ccccc2O1)c1ccc(NC(=O)c2ccco2)cc1 (stereo unspecified); -2.6e-05
Cc1cccc2c1N(CC(=O)OC(C)C)C(=O)C2=O; -6.4e-06
O=C(Nc1ccc2c(c1)C(=O)N(C1CCCCC1)C2=O)C1CCCO1 (stereo unspecified); 6.1e-06
Cc1cc(C)nc(N2CCC(C(=O)Nc3ccc(Oc4ccccc4)cc3)CC2)n1; -5.6e-05
COc1ccc(C(=O)COC(=O)CCn2nnc(-c3cccs3)n2)cc1; 1.6e-05
Cc1nc2ccccn2c1P(=O)(N1CCCCC1)N1CCCCC1; -1.7e-06
COc1cc(SC)ccc1C(=O)Nc1ccccc1C#N; -1.3e-05
CC(C)(C)NC(=O)CN(C(=O)C1CSC(=O)C1)c1ccc2c(c1)OCCO2 (stereo unspecified); -6.7e-05
Cn1nc(C(C)(C)C)cc1C(=O)NCc1ccc(N2CCCC2=O)cc1; -9.7e-05
CCCCCC1NC(=O)NC1CCCCCC(=O)O (stereo unspecified); -5.6e-05

Value of NADPH fluorescence slope reported for the compound Cc1cccc2cc(CN(Cc3nnnn3Cc3ccccc3)C3CCCC3)c(=O)[nH]c12 is -0.00011

Value of NADPH fluorescence slope reported for the compound Cc1ccc(S(=O)(=O)N2CCN(C(=O)c3cc(=O)[nH]c4ccccc34)CC2)c(C)c1 is -2.6e-05
